So I've got a bunch of binders here, and I need their xmid (log10) values.
molecular target: SARS-CoV-2 Spike RBD-His Tag, Sino Biological (SARS-CoV-2)
The response must contain the number and no unit.

Lookup: # input binder: vhh_tstrep_sars2_pjl1_L_127 (VHH) VHH: QVQLQESGGGLVQAGGSLRLSCAASGRTFSEYAMGWFRQAPGKEREFVATISWSGGAAYHTDSVKGRFTISRDNAKNTVYLQMNSLKPDDTAVYYCAAAGLGTVVSEWDYDYDYWGQGTQVTVSS ; wanted: its xmid (log10)
Found: -0.006

Lookup: Moving on to vhh_tstrep_sars2_pjl1_L_113 (VHH) VHH: QVQLQESGGGLVQAGGSLRLSCAASGRTFSEYAMGWFRQAPGKEREFVATISWSGGATYHTDSVKGRFTISRDNAKNTVYLQMNSLKPDDTAVYYCAAAGLGTVVSEWDFDYDYWGQGTQVTVSS
Found: 0.334

Lookup: Moving on to vhh_tstrep_sars2_pjl1_L_126 (VHH) VHH: QVQLQESGGGLVQAGGSLRLSCAASGRTFSEYAMGWFRQAPGKEREFVATISWSGGASYHTDSVKGRFTISRDNAKNTVYLQMNSLKPDDTAVYYCAAAGLGTVVSEWDYDYDYWGQGTQVTVSS
Found: -0.398

Lookup: Moving on to vhh_tstrep_sars2_pjl1_L_121 (VHH) VHH: QVQLQESGGGLVQAGGSLRLSCAASGRTFSEYAMGWFRQAPGKEREFVATISWSGWATYHTDSVKGRFTISRDNAKNTVYLQMNSLKPDDTAVYYCAAAGLGTVVSEWDYDYDYWGQGTQVTVSS
Found: -0.645

Lookup: Moving on to vhh_tstrep_sars2_pjl1_L_124 (VHH) VHH: QVQLQESGGGLVQAGGSLRLSCAASGRTFSEYAMGWFRQAPGKEREFVATISWSGGGTYHTDSVKGRFTISRDNAKNTVYLQMNSLKPDDTAVYYCAAAGLGTVVSEWDYDYDYWGQGTQVTVSS
Found: -1.89

Lookup: Moving on to vhh_tstrep_sars2_pjl1_L_118 (VHH) VHH: QVQLQESGGGLVQAGGSLRLSCAASGRTFSEYAMGWFRQAPGKEREFVATISWSGGATGHTDSVKGRFTISRDNAKNTVYLQMNSLKPDDTAVYYCAAAGLGTVVSEWDYDYDYWGQGTQVTVSS
Found: 0.412

src = patent US20240059759A1
